# Assay overview: Half life in rats after 1 mg/kg intravenous dose
# Assay context: rat, in vivo
Measure name: half-life (h)

{"columns": ["Structure notation", "Reported result"],
 "data": [
  ["Cc1nc2cc(OC[C@H](O)CN3CCN(Cc4noc(-c5ccc(C(F)(F)F)cc5)n4)CC3)ccc2s1", 3.2]
]}

1. Cc1nc2cc(OC[C@H](O)CN3CCN(Cc4noc(-c5ccc(C(F)(F)F)cc5)n4)C[C@@H]3C)ccc2s1
2. Cc1nc2cc(OC[C@H](O)CN3CCN(CC(=O)Nc4c(C)cccc4C)CC3)ccc2s1
Of 1 and 2 , whose reported half-life is the larger number? State the label of the item chosen.
1
(1: 4 h, 2: 1.4 h)

The reported numbers originate from ChEMBL document CHEMBL1138718.
